MPO kinact/Ki listing for selected compounds.
- test.target: MPO (purified from human polynuclear leukocytes) (Homo sapiens)
- Construct: purified from human polynuclear leukocytes; purchased Calbiochem/EMD Biosciences; host or cells: human polynuclear leukocytes (natural source)
- Sequence (P05164 279-745 limits assumed): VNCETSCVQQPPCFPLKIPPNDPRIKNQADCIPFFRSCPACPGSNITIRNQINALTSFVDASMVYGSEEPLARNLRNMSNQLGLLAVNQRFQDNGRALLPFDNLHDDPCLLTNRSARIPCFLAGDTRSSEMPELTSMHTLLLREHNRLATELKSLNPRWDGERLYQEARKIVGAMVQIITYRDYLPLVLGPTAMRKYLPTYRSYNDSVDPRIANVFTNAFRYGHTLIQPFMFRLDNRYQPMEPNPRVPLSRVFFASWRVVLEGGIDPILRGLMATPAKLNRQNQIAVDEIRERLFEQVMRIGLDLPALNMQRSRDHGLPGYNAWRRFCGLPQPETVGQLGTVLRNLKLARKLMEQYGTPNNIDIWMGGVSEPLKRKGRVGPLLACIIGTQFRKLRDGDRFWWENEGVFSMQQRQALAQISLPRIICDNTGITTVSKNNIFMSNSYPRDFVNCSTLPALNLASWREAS
- Sequence (P05164 165-273 limits assumed): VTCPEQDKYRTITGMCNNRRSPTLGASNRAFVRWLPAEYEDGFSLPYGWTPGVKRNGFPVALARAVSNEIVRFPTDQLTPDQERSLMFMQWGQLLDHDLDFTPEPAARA
- test.method.notes: MPO Amplex Red Activity Assay
- Format: biochemical
- condition.set: Table 1, 2 μM H2O2, pH 7.4
Counter-ions that a name gives are not always drawn.

Exercise: Give the measured MPO kinact/Ki of COCCn1c(-c2cccc(S(=O)(=O)N(C)C)c2)cc(=O)[nH]c1=S [Example 348] .
Solution: 1400 1/s per M

Exercise: Could you share which MPO kinact/Ki value was measured for COCCn1c(-c2cc(Cl)cnc2OC)cc(=O)[nH]c1=S [Example 96] ?
Solution: 2200 1/s per M

Exercise: Name the reported MPO kinact/Ki value associated with the compound COCCn1c(-c2cc(C)cnc2OC)cc(=O)[nH]c1=S [Example 51]
Solution: 6180 1/s per M

Exercise: Query: MPO kinact/Ki; subject: COCCn1c(-c2coc3ccccc23)cc(=O)[nH]c1=S [Example 305]
Solution: 6370 1/s per M

Exercise: Requested read-out: MPO kinact/Ki. Entry: COc1ccc(Cl)cc1-c1cc(=O)[nH]c(=S)n1C[C@H]1CCCN1 [Example 122, hydrochloride]
Solution: 9310 1/s per M

Exercise: Given the compound COc1ccc(-c2cc(=O)[nH]c(=S)n2Cc2ncn[nH]2)c(OC)c1 [Example 209] , what is its reported MPO kinact/Ki?
Solution: 4360 1/s per M

Exercise: Looking for the measured MPO kinact/Ki of O=c1cc(-c2ccc3c(c2)CCO3)n(CCO)c(=S)[nH]1 [Example 15] , can you help?
Solution: 5420 1/s per M

Exercise: So what does the record say about MPO kinact/Ki for COc1ccc(OC)c(-c2cc(=O)[nH]c(=S)n2CC(N)=O)c1 [Example 2] ?
Solution: 12500 1/s per M

All values here come from patent US9399626B2.
